Entries annotated with measured melting point

// below: answered compounds
INSERT INTO results (compound, readout_type, observed_value) VALUES
  ('COc1ccc(N2CCN(CCn3c(=NC(=O)C(F)(F)F)sc4cc(C(F)(F)F)ccc43)CC2)cc1', 'melting point', '120 °C'),
  ('COc1ccc2c(c1)CC(=O)NC2=O', 'melting point', '212 to 215 °C'),
  ('O=C(NC1CN(C(C(=O)O)c2ccc(OC(=O)c3ccccc3)cc2)C1=O)C(=NOC(=O)c1ccccc1)c1ccccc1 (stereo not given)', 'melting point', '119 to 123 °C'),
  ('CC(=O)NCC1Cc2cccc3cccc1c23 (stereo not given)', 'melting point', '145 °C');

Q) Using the record for `CCC(=O)Nc1c(C)nn(C)c1C#N` , report its melting point.
A) 153 to 155 °C

Q) Using the record for `COc1cc(CCNC(=O)[C@@H](NS(C)(=O)=O)C(C)C)ccc1OCc1cccc2ccccc12` , report its melting point.
A) 153 to 157 °C

Q) Using the record for `CC(C)(Oc1ccc(CCNC(=O)C=Cc2ccccc2Cl)cc1)C(=O)O` , report its melting point.
A) 145 to 146 °C

Q) Using the record for `COC(=O)Nc1nc(C)c(-c2nc3ccccc3c(=O)n2-c2ccc(Cl)cc2)s1` , report its melting point.
A) > 275 °C

Q) Using the record for `CC(=O)Nc1cc(Br)c(O)c(Br)c1` , report its melting point.
A) 155 to 156 °C

Q) Using the record for `O=C(C=Cc1ccco1)NCCCCCC(=O)NO` , report its melting point.
A) 151 to 152 °C
